- target: Triticum aestivum (wheat) EPSP synthase DGT-7 v5, native (GENBANK EU977181), SEQ ID NO: 60 (Triticum aestivum, UniProt B5M6A1)
- Sequence (B5M6A1 entry or part of it): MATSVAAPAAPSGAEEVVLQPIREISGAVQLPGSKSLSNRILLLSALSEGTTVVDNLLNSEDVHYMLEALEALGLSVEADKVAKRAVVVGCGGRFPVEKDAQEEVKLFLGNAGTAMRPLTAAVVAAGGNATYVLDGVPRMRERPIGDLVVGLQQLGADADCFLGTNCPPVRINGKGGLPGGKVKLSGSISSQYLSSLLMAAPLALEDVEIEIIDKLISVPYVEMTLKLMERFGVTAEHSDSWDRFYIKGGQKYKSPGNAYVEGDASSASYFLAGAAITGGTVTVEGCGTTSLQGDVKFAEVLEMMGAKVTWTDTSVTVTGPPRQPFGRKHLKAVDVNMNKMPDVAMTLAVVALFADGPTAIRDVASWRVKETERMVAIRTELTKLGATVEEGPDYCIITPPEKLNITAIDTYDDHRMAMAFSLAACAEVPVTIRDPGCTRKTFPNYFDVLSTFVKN
- measurement_notes: In vitro kinetic assay (inorganic phosphate production, malachite green)
value_type: IC50

Ask | Field request: IC50 | item: O=C(O)CNCP(=O)(O)O [glyphosate, N-(phosphonomethyl)glycine]
Reply | ~20 µM

* * *

- target: bacterial EPSP synthase DGT-11 v6, native (GENBANK YP_989551.1), SEQ ID NO:5 (Bartonella bacilliformis, UniProt A0ABN0IFN8)
- measurement_notes: In vitro kinetic assay (inorganic phosphate production, malachite green)
value_type: pIC50
pIC50 is a log-scale quantity: -log10 of the concentration expressed in molar.

Ask | Reported pIC50, molecule O=C(O)CNCP(=O)(O)O [glyphosate, N-(phosphonomethyl)glycine] : ____
Reply | 2.00

* * *

- target: Triticum aestivum (wheat) EPSP synthase DGT-7 variant DGT-7 v6 (G→A) (Triticum aestivum, UniProt B5M6A1, G167A)
- Sequence (B5M6A1 entry or part of it G167A): as the sequence (B5M6A1 entry or part of it) above, with G113A counted along it
- measurement_notes: In vitro kinetic assay (inorganic phosphate production, malachite green)
- Type: biochemical
- conditions: IC50 (glyphosate), at 1 mM PEP
value_type: IC50 (mM)
Answer format: numeric, mM implied, no suffix.

Ask | Fill blank: measured IC50 of the molecule O=C(O)CNCP(=O)(O)O [glyphosate, N-(phosphonomethyl)glycine] is ____.
Reply | 8.1

* * *

- target: Mariprofundus ferrooxydans EPSP synthase DGT-14 v1, native wild type (GENBANK ZP_01452683; SEQ ID NO:17) (Mariprofundus ferrooxydans, UniProt Q0EYT4)
- Construct: pET28, N-terminal 6xHis and thrombin site, E. coli, IMAC purified
- measurement_notes: In vitro kinetic assay (inorganic phosphate production, malachite green)
- Type: biochemical
- conditions: IC50 (glyphosate), at 60 μM PEP
value_type: IC50 (µM)
Hi! Could you send only the number? It should be in µM, unit omitted.

Ask | # get_value(readout='IC50', item= O=C(O)CNCP(=O)(O)O [glyphosate, N-(phosphonomethyl)glycine] )
Reply | 440

* * *

- target: Glycine max (soybean) EPSP synthase DGT-1 variant DGT-1 v6 (G→A) (Glycine max, UniProt I1J7U9, G182A)
- Sequence (I1J7U9 with tags, fused parts or gaps G182A): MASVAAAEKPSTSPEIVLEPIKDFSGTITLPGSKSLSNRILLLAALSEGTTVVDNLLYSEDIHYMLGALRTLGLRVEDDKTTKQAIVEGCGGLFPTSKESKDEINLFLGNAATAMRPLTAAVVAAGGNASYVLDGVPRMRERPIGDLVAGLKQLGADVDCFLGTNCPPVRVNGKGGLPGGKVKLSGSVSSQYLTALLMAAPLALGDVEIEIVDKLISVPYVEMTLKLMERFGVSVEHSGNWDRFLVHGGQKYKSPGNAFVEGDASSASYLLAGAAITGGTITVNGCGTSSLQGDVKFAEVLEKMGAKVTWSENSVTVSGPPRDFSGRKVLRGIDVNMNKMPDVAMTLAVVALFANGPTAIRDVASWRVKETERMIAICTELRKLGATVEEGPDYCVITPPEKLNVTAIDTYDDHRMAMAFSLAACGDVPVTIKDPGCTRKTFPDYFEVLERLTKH
- measurement_notes: In vitro kinetic assay (inorganic phosphate production, malachite green)
- Format: biochemical
- conditions: IC50 (glyphosate), at 60 μM PEP
value_type: IC50 (mM)
Give your result in mM as a bare value.

Ask | Suppose we examine the molecule O=C(O)CNCP(=O)(O)O [glyphosate, N-(phosphonomethyl)glycine] ; what IC50 value has been reported?
Reply | 17.3
